PROTOCOL_DESCRIPTION: Mouse pharmacokinetics study, single i.v. injection
Type: in vivo, male CD1 mice
ASSAY_CONTEXT: male, CD1, mouse, plasma, iv, 10 mg/kg, 10 mg/kg i.v., male CD1 mice; read-out: Vβ
Square brackets hold non-standard residues; d marks the D form. Peptide text beside a SMILES is read from it. * marks the point of attachment. Cbz = O=C(OCc1ccccc1)*
READOUT_TYPE: Vd (L)

- CC(=O)N[C@H](Cc1ccc(O)cc1)C(=O)N[C@H](CCCNC(=N)N)C(=O)N[C@H](Cc1ccccc1)C(N)=O [Compound 17, Ac-D-Tyr-D-Arg-D-Phe-NH2] (Ac-[dY]-[dR]-[dF]-NH2): 0.0756
- N=C(N)NCCC[C@@H](NC(=O)[C@@H](CCC(=O)O)NC(=O)[C@@H](Cc1ccc(O)cc1)NC(=O)OCc1ccccc1)C(=O)N[C@H](Cc1ccccc1)C(N)=O [Compound 9, Z-D-Tyr-D-Glu-D-Arg-D-Phe-NH2] (Cbz-[dY][dE][dR][dF]-NH2): 0.394

* * *

Tested on: U266, KMS-11, NCI-H929, BJAB and U937 tumour cell lines
PROTOCOL_DESCRIPTION: [3H]thymidine incorporation assay in tumour cell lines at 10 μM
Type: cell-based, human
ASSAY_CONTEXT: up to 144 hrs, result in words
Square brackets hold non-standard residues; d marks the D form. Peptide text beside a SMILES is read from it. * marks the point of attachment. Cbz = O=C(OCc1ccccc1)*
READOUT_TYPE: tumoricidal/cytotoxic activity in tumour cell lines

- NC(=O)[C@H](Cc1ccccc1)NC(=O)[C@H](Cc1c[nH]cn1)NC(=O)[C@H](CC(=O)O)NC(=O)[C@H](Cc1ccc(O)cc1)NC(=O)OCc1ccccc1 [Z-YDHF-NH2] (Cbz-YDHF-NH2): not
- CC(=O)N[C@H](Cc1ccc(O)cc1)C(=O)N[C@H](CC(=O)O)C(=O)N[C@H](Cc1c[nH]cn1)C(=O)N[C@H](Cc1ccccc1)C(N)=O [DTP1] (Ac-[dY][dD][dH][dF]-NH2): not

* * *

PROTOCOL_DESCRIPTION: Mouse pharmacokinetics study, single i.v. injection
Assay type: in vivo, male CD1 mice
ASSAY_CONTEXT: mouse, plasma, iv; 10 mg/kg i.v., male CD1 mice; read-out: AUC to Last
Square brackets hold non-standard residues; d marks the D form. Peptide text beside a SMILES is read from it. * marks the point of attachment. Cbz = O=C(OCc1ccccc1)*
READOUT_TYPE: AUC (ng·h/mL)

• CC(=O)N[C@H](Cc1ccc(O)cc1)C(=O)N[C@H](CCCNC(=N)N)C(=O)N[C@H](Cc1ccccc1)C(N)=O [Compound 17, Ac-D-Tyr-D-Arg-D-Phe-NH2] (Ac-[dY]-[dR]-[dF]-NH2) = 6430
• N=C(N)NCCC[C@@H](NC(=O)[C@@H](CCC(=O)O)NC(=O)[C@@H](Cc1ccc(O)cc1)NC(=O)OCc1ccccc1)C(=O)N[C@H](Cc1ccccc1)C(N)=O [Compound 9, Z-D-Tyr-D-Glu-D-Arg-D-Phe-NH2] (Cbz-[dY][dE][dR][dF]-NH2) = 2080

* * *

PROTOCOL_DESCRIPTION: Mouse pharmacokinetics study, single i.v. injection
Type: in vivo, male CD1 mice
ASSAY_CONTEXT: male, CD1, mouse, plasma, iv, 10 mg/kg, 10 mg/kg i.v., male CD1 mice; read-out: Vss
Square brackets hold non-standard residues; d marks the D form. Peptide text beside a SMILES is read from it. * marks the point of attachment. Cbz = O=C(OCc1ccccc1)*
READOUT_TYPE: Vd (L)

- CC(=O)N[C@H](Cc1ccc(O)cc1)C(=O)N[C@H](CCCNC(=N)N)C(=O)N[C@H](Cc1ccccc1)C(N)=O [Compound 17, Ac-D-Tyr-D-Arg-D-Phe-NH2] (Ac-[dY]-[dR]-[dF]-NH2): 0.0126
- N=C(N)NCCC[C@@H](NC(=O)[C@@H](CCC(=O)O)NC(=O)[C@@H](Cc1ccc(O)cc1)NC(=O)OCc1ccccc1)C(=O)N[C@H](Cc1ccccc1)C(N)=O [Compound 9, Z-D-Tyr-D-Glu-D-Arg-D-Phe-NH2] (Cbz-[dY][dE][dR][dF]-NH2): 0.126

* * *

Each record here notes measured IC50.
MEASURED_ON: Gadd45β/MKK7 interaction (Homo sapiens)
Construct: The GST-fused full-length kinase was coated for 16 h at 4° C., at a concentration of 42 nM; made in house
Sequence (O14733 1-419): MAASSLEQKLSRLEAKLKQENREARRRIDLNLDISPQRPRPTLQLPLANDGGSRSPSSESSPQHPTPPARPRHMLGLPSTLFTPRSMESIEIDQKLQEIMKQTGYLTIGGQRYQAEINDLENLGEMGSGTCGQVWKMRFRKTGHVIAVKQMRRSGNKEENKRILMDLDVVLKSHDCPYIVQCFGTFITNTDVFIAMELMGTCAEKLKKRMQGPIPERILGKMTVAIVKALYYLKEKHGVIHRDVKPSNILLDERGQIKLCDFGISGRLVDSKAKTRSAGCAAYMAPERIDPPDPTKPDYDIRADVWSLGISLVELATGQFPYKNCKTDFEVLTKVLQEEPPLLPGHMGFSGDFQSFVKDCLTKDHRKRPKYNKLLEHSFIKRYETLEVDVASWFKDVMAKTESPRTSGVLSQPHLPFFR
PROTOCOL_DESCRIPTION: ELISA competition assay of biotin-hGadd45β binding to coated GST-MKK7
ASSAY_CONTEXT: Table V, FIG. 3C; read-out: IC50 ELISA
Square brackets hold non-standard residues; d marks the D form. Peptide text beside a SMILES is read from it. * marks the point of attachment. Cbz = O=C(OCc1ccccc1)*; NHBn = c1ccc(CN*)cc1; Bz = O=C(c1ccccc1)*; NHPh = c1ccc(N*)cc1
READOUT_TYPE: IC50

- NC(=O)CC[C@@H](NC(=O)[C@@H](Cc1c[nH]cn1)NC(=O)[C@@H](CC(=O)O)NC(=O)[C@@H](Cc1ccc(O)cc1)NC(=O)OCc1ccccc1)C(N)=O [Compound 32, Z-Tyr-Asp-His-Gln-NH2] (Cbz-[dY][dD][dH][dQ]-NH2): > 10 nM
- O=C(O)C[C@@H](NC(=O)c1ccccc1)C(=O)N[C@H](Cc1c[nH]cn1)C(=O)NCc1ccccc1 [Compound 3, X1-Asp-His-Y2] (Bz-[dD]-[dH]-NHBn): > 1 nM
- O=C(O)C[C@@H](NC(=O)c1ccccc1)C(=O)N[C@H](Cc1c[nH]cn1)C(=O)Nc1ccccc1 [Compound 2, X1-Asp-His-Y1] (Bz-[dD]-[dH]-NHPh): > 1 nM
- CC(=O)N[C@H](Cc1ccc(O)cc1)C(=O)N[C@H](CCC(=O)O)C(=O)N[C@H](CCCNC(=N)N)C(=O)N[C@H](Cc1ccccc1)C(N)=O [DTP2] (Ac-[dY][dE][dR][dF]-NH2): 0.19 nM
- CC(=O)N[C@H](CC1CCCCC1)C(=O)N[C@H](CCCNC(=N)N)C(=O)N[C@H](Cc1ccccc1)C(N)=O [Compound 20, Ac-Cha-Arg-Phe-NH2]: > 5 nM
- N=C(N)NCCC[C@@H](NC(=O)[C@@H](CCC(=O)O)NC(=O)[C@@H](Cc1ccc(O)cc1)NC(=O)[C@@H](Cc1ccc(O)cc1)NC(=O)OCc1ccccc1)C(=O)N[C@H](Cc1ccccc1)C(N)=O [Compound 22, Z-Tyr-Tyr-Glu-Arg-Phe-NH2] (Cbz-[dY][dY][dE][dR][dF]-NH2): > 5 nM
- NC(=O)CC[C@@H](NC(=O)[C@@H](Cc1c[nH]cn1)NC(=O)[C@@H](CC(=O)O)NC(=O)[C@@H](Cc1ccc(O)cc1)NC(=O)[C@@H](Cc1ccc(O)cc1)NC(=O)OCc1ccccc1)C(N)=O [Compound 33, Z-Tyr-Tyr-Asp-His Gln-NH2] (Cbz-[dY][dY][dD][dH][dQ]-NH2): > 10 nM
- CC(=O)N[C@H](Cc1ccc(O)cc1)C(=O)N[C@H](CC(=O)O)C(=O)N[C@H](Cc1c[nH]cn1)C(=O)N[C@H](Cc1ccccc1)C(N)=O [DTP1] (Ac-[dY][dD][dH][dF]-NH2): 0.22 nM

* * *

MEASURED_ON: Gadd45β/MKK7 interaction (Homo sapiens, UniProt O14733)
Construct: The GST-fused full-length kinase was coated for 16 h at 4° C., at a concentration of 42 nM; made in house
PROTOCOL_DESCRIPTION: ELISA competition assay after 48-hr pre-incubation with human serum at 37° C.
Format: binding
ASSAY_CONTEXT: result in words
Square brackets hold non-standard residues; d marks the D form. Peptide text beside a SMILES is read from it. * marks the point of attachment. Cbz = O=C(OCc1ccccc1)*
READOUT_TYPE: stability after pre-incubation with human serum

* N=C(N)NCCC[C@@H](NC(=O)[C@@H](CCC(=O)O)NC(=O)[C@@H](Cc1ccc(O)cc1)NC(=O)OCc1ccccc1)C(=O)N[C@H](Cc1ccccc1)C(N)=O [Compound 9, Z-D-Tyr-D-Glu-D-Arg-D-Phe-NH2] (Cbz-[dY][dE][dR][dF]-NH2) | completely stable
* NC(=O)[C@@H](Cc1ccccc1)NC(=O)[C@@H](Cc1c[nH]cn1)NC(=O)[C@@H](CC(=O)O)NC(=O)[C@@H](Cc1ccc(O)cc1)NC(=O)OCc1ccccc1 [Compound 1, Z-Tyr-Asp-His-Phe-NH2] (Cbz-[dY][dD][dH][dF]-NH2) | completely stable
